B1: AUP1 (parent)
chain: FCASTRLPPTPLLLFPEEEATNGR

- Variants of: B1
- protocol: protein stability index of a GFP-peptide fusion (GPS, HEK-293T) (PSI 1-6); higher = more stable;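 note: lentivirally expressed fusions sorted by FACS into six bins by GFP to DsRed ratio, PSI derived from sequencing read proportions per bin multiplied by bin number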
- conditions: c terminus: a fixed tail appended
Short version: protein stability index at least 3 is 1, less is -1.

Query: Test whether the variant S4A records protein stability index of 3 or higher.
Reply: -1

Query: Test whether the variant E18Q records protein stability index of 3 or higher.
Reply: -1

Query: Test whether the variant L13F records protein stability index of 3 or higher.
Reply: -1

Reference source for all entries: the supplement of paper PMC10567573
